Reference source: paper PMC6010085

Please go through the items and note down their pKi.
Molecular target: recombinant human protein tyrosine phosphate 1B (PTP1B, EC 3. 1. 3. 48) (Homo sapiens, UniProt P18031)
Sequence (P18031 whole entry): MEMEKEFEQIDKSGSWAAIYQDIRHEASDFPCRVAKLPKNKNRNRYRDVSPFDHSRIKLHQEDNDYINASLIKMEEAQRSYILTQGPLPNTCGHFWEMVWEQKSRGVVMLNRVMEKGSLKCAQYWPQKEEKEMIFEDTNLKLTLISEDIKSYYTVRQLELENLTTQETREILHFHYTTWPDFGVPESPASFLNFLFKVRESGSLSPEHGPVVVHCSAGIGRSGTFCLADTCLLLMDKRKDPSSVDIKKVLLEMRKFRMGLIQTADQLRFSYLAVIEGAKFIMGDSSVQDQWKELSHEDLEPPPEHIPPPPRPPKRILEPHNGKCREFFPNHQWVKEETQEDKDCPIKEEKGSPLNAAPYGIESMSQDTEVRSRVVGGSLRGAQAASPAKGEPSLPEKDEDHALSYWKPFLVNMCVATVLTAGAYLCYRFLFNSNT
Assay: biochemical
Format: biochemical
Details: PTP1B, secondary plots; read-out: KI (inhibitor binds with free enzyme)
Answers are plain numbers, as −log10 of the molar value.

# example entries with known answers
compound: COc1cc([C@@H]2CC(=O)c3c(cc(O)c(C/C=C(\C)CCC=C(C)C)c3O)O2)ccc1O
pKi: 5.59

compound: COc1c(O)cc([C@H]2Oc3cc(O)c(C/C=C(\C)CCC=C(C)C)c(O)c3C(=O)[C@@H]2O)cc1O
pKi: 5.23

compound: COc1ccc([C@@H]2CC(=O)c3c(cc(O)c(C/C=C(\C)CCC=C(C)C)c3O)O2)cc1O
pKi: 5.24

Query: For the compound COc1c(O)cc(C2CC(=O)c3c(cc(O)c(C/C=C(\C)CCC=C(C)C)c3O)O2)cc1O (stereo not shown) , report pKi.
Response: 5.26

====

Please go through the items and note down their KIS (inhibitor binds with enzyme-substrate complex).
Biological target: recombinant human protein tyrosine phosphate 1B (PTP1B, EC 3. 1. 3. 48) (Homo sapiens, UniProt P18031)
Assay: biochemical
Format: biochemical
Details: PTP1B, secondary plots
Give bare numbers, in µM.

smiles: COc1cc([C@H]2Oc3cc(O)c(C/C=C(\C)CCC=C(C)C)c(O)c3C(=O)[C@@H]2O)ccc1O
value: 5.2
//
smiles: CC(C)=CCC/C(C)=C/Cc1c(O)cc2c(c1O)C(=O)C[C@@H](c1ccc(O)cc1)O2
value: 2.2

Kindly review the next compound as well.
Query: For the compound `COc1ccc([C@H]2Oc3cc(O)c(C/C=C(\C)CCC=C(C)C)c(O)c3C(=O)[C@@H]2O)cc1O` , report KIS (inhibitor binds with enzyme-substrate complex).
Response: 13.7
